tested on: A-375 (melanoma); assay: MTS cell viability assay, A-375; type: cell-based; conditions: Homo sapiens, 72 h
PROPERTY: IC50 (µg/mL)
Just the number please, in µg/mL, no unit attached.

Recorded IC50 for C=C(C)[C@@H]1CC[C@]2(COC3CCCCO3)CC[C@]3(C)[C@H](CC[C@@H]4[C@@]5(C)CC6=C(ON(O)C6)C(C)(C)[C@@H]5CC[C@]43C)[C@@H]12 (some centres unmarked) , please?
6

Name the reported IC50 value associated with the molecule C=C(C)[C@@H]1CC[C@]2(C=O)CC[C@]3(C)[C@H](CC[C@@H]4[C@@]5(C)CCC(=O)C(C)(C)[C@@H]5CC[C@]43C)[C@@H]12
15

I am curious: what IC50 value has been reported for C=C(C)[C@@H]1CC[C@]2(CO)CC[C@]3(C)[C@H](CC[C@@H]4[C@@]5(C)C=C(C#N)C(=O)C(C)(C)[C@@H]5CC[C@]43C)[C@@H]12 ?
6

For the molecule shown here, CC(C)[C@@H]1CC[C@]2(C(=O)O)CC[C@]3(C)[C@H](CC[C@@H]4[C@@]5(C)CC[C@H](N)C(C)(C)[C@@H]5CC[C@]43C)[C@@H]12 , give the reported IC50.
5

Quick one: IC50 for CC(C)[C@@H]1CC[C@]2(CO)CC[C@]3(C)[C@H](CC[C@@H]4[C@@]5(C)C=C(C#N)C(=O)C(C)(C)[C@@H]5CC[C@]43C)[C@@H]12 ?
4
